# Tested on: methicillin-resistant Staphylococcus aureus or MRSA
# assay.procedure: In vitro antibacterial activity, MIC by micro broth dilution
# Assay type: cell-based
# settings: read-out: MIC MRSA
The entries below are paired with their reported MIC.

>>> observed_value("C[C@@H]1CN2c3c(cc4c(N5C[C@H](CF)SC5=O)noc4c3F)CC3(C(=O)NC(=O)NC3=O)[C@H]2[C@H](C)O1")
"0.03 to 1 µg/mL"
>>> observed_value("CC[C@H]1CN(c2noc3c(F)c4c(cc23)CC2(C(=O)NC(=O)NC2=O)[C@H]2[C@H](C)O[C@H](C)CN42)C(=O)S1")
"< 0.03 µg/mL"
>>> observed_value("C=C1CN(c2noc3c(F)c4c(cc23)CC2(C(=O)NC(=O)NC2=O)[C@H]2[C@H](C)O[C@H](C)CN42)C(=O)S1")
"< 0.03 µg/mL"
>>> observed_value("C[C@@H]1CN2c3c(cc4c(N5C[C@H](C)SC5=O)noc4c3F)CC3(C(=O)NC(=O)NC3=O)[C@H]2[C@H](C)O1")
"0.03 to 0.25 µg/mL"
>>> observed_value("C[C@@H]1CN2c3c(cc4c(N5C(=O)SC[C@H]5C)noc4c3F)CC3(C(=O)NC(=O)NC3=O)[C@H]2[C@H](C)O1")
"0.03 to 0.5 µg/mL"

Shift focus to the following entry.
Identify MIC associated with the compound C[C@@H]1CN2c3c(cc4c(N5C(=O)SC[C@@H]5C)noc4c3F)CC3(C(=O)NC(=O)NC3=O)[C@H]2[C@H](C)O1
0.03 to 0.25 µg/mL

* * *

Here, each record is paired with measured MRT data.
# assay.procedure: In vivo pharmacokinetics test in mice (oral)
# Design: species or system CD-1 mice
# settings: PO 10.0 mg/kg, plasma
State the answer as a number, implicitly in h.

Examples from the recorded data:
>>> observed_value("COC[C@H]1CN(c2noc3c(F)c4c(cc23)CC2(C(=O)NC(=O)NC2=O)[C@H]2[C@H](C)O[C@H](C)CN42)C(=O)S1")
3.72
>>> observed_value("C[C@@H]1CN2c3c(cc4c(N5C[C@@H](C)SC5=O)noc4c3F)CC3(C(=O)NC(=O)NC3=O)[C@H]2[C@H](C)O1")
4.85
>>> observed_value("C[C@@H]1CN2c3c(cc4c(N5CCSC5=O)noc4c3F)CC3(C(=O)NC(=O)NC3=O)[C@H]2[C@H](C)O1")
3.70

Note: attention shifts to another entry.
Please look at this compound and report its MRT: CC[C@@H]1CN(c2noc3c(F)c4c(cc23)CC2(C(=O)NC(=O)NC2=O)[C@H]2[C@H](C)O[C@H](C)CN42)C(=O)S1
3.45

* * *

# assay.procedure: In vivo pharmacokinetics test in mice (oral)
# Set-up: species or system CD-1 mice
# settings: female, CD-1, mouse, PO 10.0 mg/kg, plasma, read-out: Tmax
experimental.readout: Tmax (min)
Response body: numeric value in min, unit text excluded.

Observe how each entry below is paired with its result.
>>> observed_value("C[C@@H]1CN2c3c(cc4c(N5C(=O)OC[C@@H]5C)noc4c3F)CC3(C(=O)NC(=O)NC3=O)[C@H]2[C@H](C)O1 [AZD0914, reference compound]")
35
>>> observed_value("COC[C@H]1CN(c2noc3c(F)c4c(cc23)CC2(C(=O)NC(=O)NC2=O)[C@H]2[C@H](C)O[C@H](C)CN42)C(=O)S1")
35
>>> observed_value("C[C@@H]1CN2c3c(cc4c(N5C[C@H](C)SC5=O)noc4c3F)CC3(C(=O)NC(=O)NC3=O)[C@H]2[C@H](C)O1")
160

Item C[C@@H]1CN2c3c(cc4c(N5C[C@@H](C)SC5=O)noc4c3F)CC3(C(=O)NC(=O)NC3=O)[C@H]2[C@H](C)O1 : provide Tmax
35

* * *

# assay.procedure: In vivo pharmacokinetic test in rats (PO and IV)
# settings: rat, plasma; SD rats, PO 10 mg/kg
experimental.readout: Tmax (h)
# output: bare number, implied unit h

Identify measured Tmax associated with C[C@@H]1CN2c3c(cc4c(N5C[C@H](C)SC5=O)noc4c3F)CC3(C(=O)NC(=O)NC3=O)[C@H]2[C@H](C)O1
5.33

* * *

Quick reference for AUC0→t among some compounds
# assay.procedure: In vivo pharmacokinetics test in mice (oral)
# Parameters: species or system CD-1 mice
# settings: PO 10.0 mg/kg, plasma
The reply must contain the numeric value and, after it, the unit.

>>> observed_value("C[C@@H]1CN2c3c(cc4c(N5CCSC5=O)noc4c3F)CC3(C(=O)NC(=O)NC3=O)[C@H]2[C@H](C)O1")
"7334 ± 943 ng·h/mL"
>>> observed_value("CC[C@@H]1CN(c2noc3c(F)c4c(cc23)CC2(C(=O)NC(=O)NC2=O)[C@H]2[C@H](C)O[C@H](C)CN42)C(=O)S1")
"8057 ± 1469 ng·h/mL"
>>> observed_value("COC[C@H]1CN(c2noc3c(F)c4c(cc23)CC2(C(=O)NC(=O)NC2=O)[C@H]2[C@H](C)O[C@H](C)CN42)C(=O)S1")
"8240 ± 940 ng·h/mL"

Supply reported AUC0→t belonging to this compound: C[C@@H]1CN2c3c(cc4c(N5C[C@@H](C)SC5=O)noc4c3F)CC3(C(=O)NC(=O)NC3=O)[C@H]2[C@H](C)O1
12034 ± 2835 ng·h/mL

* * *

# assay.procedure: In vivo pharmacokinetics test in mice (oral)
# Design: species or system CD-1 mice
# settings: female, CD-1, mouse, PO 10.0 mg/kg, plasma
experimental.readout: half-life

>>> observed_value("C[C@@H]1CN2c3c(cc4c(N5C(=O)OC[C@@H]5C)noc4c3F)CC3(C(=O)NC(=O)NC3=O)[C@H]2[C@H](C)O1 [AZD0914, reference compound]")
"3.41 h"

Determine its reported half-life: C[C@@H]1CN2c3c(cc4c(N5C[C@H](C)SC5=O)noc4c3F)CC3(C(=O)NC(=O)NC3=O)[C@H]2[C@H](C)O1
6.2 h

* * *

Catalogue of Cmax readings, one per entry.
# assay.procedure: In vivo pharmacokinetics test in mice (oral)
# Design: species or system CD-1 mice
# settings: PO 10.0 mg/kg, plasma
Supply the numeric figure in ng/mL, leaving out any unit text.

>>> observed_value("COC[C@H]1CN(c2noc3c(F)c4c(cc23)CC2(C(=O)NC(=O)NC2=O)[C@H]2[C@H](C)O[C@H](C)CN42)C(=O)S1 [Compound 8]")
2051
>>> observed_value("C[C@@H]1CN2c3c(cc4c(N5C[C@@H](C)SC5=O)noc4c3F)CC3(C(=O)NC(=O)NC3=O)[C@H]2[C@H](C)O1 [Compound 3]")
2188
>>> observed_value("CC[C@@H]1CN(c2noc3c(F)c4c(cc23)CC2(C(=O)NC(=O)NC2=O)[C@H]2[C@H](C)O[C@H](C)CN42)C(=O)S1 [Compound 16]")
2376

// next entry
Give Cmax for C[C@@H]1CN2c3c(cc4c(N5CCSC5=O)noc4c3F)CC3(C(=O)NC(=O)NC3=O)[C@H]2[C@H](C)O1 [Compound 1]
1548
